tested target: IGF-1R (Homo sapiens, UniProt P08069)
Sequence (P08069 31-1367): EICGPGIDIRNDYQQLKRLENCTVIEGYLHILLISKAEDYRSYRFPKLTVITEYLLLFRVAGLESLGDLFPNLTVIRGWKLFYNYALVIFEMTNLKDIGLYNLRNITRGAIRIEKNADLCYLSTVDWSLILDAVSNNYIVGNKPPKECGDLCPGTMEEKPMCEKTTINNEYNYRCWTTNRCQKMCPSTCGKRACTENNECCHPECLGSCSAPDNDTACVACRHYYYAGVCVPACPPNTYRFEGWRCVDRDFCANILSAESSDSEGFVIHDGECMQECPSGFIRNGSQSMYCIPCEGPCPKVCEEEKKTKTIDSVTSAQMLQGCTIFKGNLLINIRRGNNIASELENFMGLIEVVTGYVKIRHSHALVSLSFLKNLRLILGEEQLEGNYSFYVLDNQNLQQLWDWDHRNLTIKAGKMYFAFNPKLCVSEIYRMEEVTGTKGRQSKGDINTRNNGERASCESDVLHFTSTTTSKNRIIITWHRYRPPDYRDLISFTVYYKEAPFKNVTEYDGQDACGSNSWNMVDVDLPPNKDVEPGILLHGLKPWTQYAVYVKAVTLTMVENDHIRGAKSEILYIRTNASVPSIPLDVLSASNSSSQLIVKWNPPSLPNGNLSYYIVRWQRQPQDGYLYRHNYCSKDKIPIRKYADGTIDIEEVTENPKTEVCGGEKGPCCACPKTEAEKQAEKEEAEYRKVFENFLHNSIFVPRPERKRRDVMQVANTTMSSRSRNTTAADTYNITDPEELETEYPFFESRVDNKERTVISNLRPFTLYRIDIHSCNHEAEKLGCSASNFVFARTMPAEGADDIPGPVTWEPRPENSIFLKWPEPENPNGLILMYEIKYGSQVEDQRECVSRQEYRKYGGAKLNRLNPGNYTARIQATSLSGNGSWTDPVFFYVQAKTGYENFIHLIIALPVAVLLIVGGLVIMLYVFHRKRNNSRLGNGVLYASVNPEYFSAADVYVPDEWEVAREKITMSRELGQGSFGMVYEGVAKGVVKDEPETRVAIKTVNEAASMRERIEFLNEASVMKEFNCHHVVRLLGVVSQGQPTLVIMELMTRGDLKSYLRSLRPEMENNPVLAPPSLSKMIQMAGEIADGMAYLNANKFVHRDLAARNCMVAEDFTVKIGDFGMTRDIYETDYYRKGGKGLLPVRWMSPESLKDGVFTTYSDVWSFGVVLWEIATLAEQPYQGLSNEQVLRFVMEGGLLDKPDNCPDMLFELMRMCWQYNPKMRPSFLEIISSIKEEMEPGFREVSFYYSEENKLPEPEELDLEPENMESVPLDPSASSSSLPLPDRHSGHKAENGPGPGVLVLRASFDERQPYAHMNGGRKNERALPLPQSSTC
test: Cellular IGF-1R assay: capture ELISA (MSD) of receptor phosphorylation in Hek293 cells
cond: Hek293-IGF1R cells, 1 h pre-incubation, 10 min IGF stimulation, pIGF1R capture ELISA
pIC50: −log10 of the molar value.
recorded endpoint: pIC50

Worked cases, answers included:
pIC50 measured on CC1CCC(COc2cccc(-c3cn([C@H]4C[C@@H](CN5CCC5)C4)c4ncnc(N)c34)c2)O1 (stereo partly shown) = 7.24 to 7.29

Record CC1(C)CCC(COc2cccc(-c3cn([C@H]4C[C@@H](CN5CCC(F)(F)CC5)C4)c4ncnc(N)c34)c2)O1 (single isomer, unassigned) [Example 54] , field pIC50: 6.92 to 7.35

For reference, reported pIC50 for NC(=O)[C@@H]1[C@@H](O)CCN1C[C@H]1C[C@@H](n2cc(-c3cccc(OCC4CCCCO4)c3)c3c(N)ncnc32)C1 (stereo partly shown) stands at 6.99 to 7.39

Turning now to a further compound:
The value of pIC50 measured for the compound Nc1ncnc2c1c(-c1cccc(OCC34CCC(CC3)O4)c1)cn2C1CC(CN2CCC[C@H]2CO)C1 (stereo partly shown) turned out to be 7.85 to 8.40
